Molecular target: T1, human IL-23 (human, UniProt Q9NPF7 20-189; P29460 23-328)
T1 construct: Heterodimer of p19 and p40; also called hIL-23
T1 sequence 1: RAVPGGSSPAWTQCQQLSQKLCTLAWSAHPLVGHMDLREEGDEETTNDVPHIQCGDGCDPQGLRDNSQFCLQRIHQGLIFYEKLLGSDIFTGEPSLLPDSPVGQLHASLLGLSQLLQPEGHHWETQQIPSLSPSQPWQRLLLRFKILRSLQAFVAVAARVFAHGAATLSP
T1 sequence 2: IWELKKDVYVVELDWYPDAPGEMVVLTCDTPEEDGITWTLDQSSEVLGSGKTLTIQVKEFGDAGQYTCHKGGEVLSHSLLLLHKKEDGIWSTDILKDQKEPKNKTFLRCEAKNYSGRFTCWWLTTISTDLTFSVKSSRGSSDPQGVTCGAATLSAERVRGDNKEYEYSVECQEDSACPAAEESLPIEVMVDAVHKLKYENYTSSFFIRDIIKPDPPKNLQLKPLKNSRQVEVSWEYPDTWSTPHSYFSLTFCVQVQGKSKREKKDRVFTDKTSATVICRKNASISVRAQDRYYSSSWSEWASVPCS
Test: SPR Biacore T100, mAb from HEK supernatant captured on anti-human IgG, human IL-23 64-0.062 nM
observable: kon (M⁻¹ s⁻¹)
Numbers only, in M⁻¹ s⁻¹.

Dear colleague, could you send me kon for each of the items below? Thanks.
1. A5M20 (antibody, human IgG1, kappa, V domains shown) VH: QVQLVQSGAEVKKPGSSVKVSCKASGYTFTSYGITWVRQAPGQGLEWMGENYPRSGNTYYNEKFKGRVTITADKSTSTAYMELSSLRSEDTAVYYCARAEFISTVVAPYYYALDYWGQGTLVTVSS VL: DIVMTQSPDSLAVSLGERATINCKASKKVTIFGSISALHWYQQKPGQPPKLIYNLAKLESGVPDRFSGSGSGTDFTLTISSLQAEDVAVYYCLQNKEVPYTFGGGTKVEIKR
2. A24AM18 (antibody, human IgG1, kappa, V domains shown) VH: QVQLVQSGAEVKKPGSSVKVSCKASGYTFTSYGITWVRQAPGQGLEWMGENYPRSGNIYYNEKFKGRVTITADKSTSTAYMELSSLRSEDTAVYYCARAEFISTVVAPYYYALDYWGQGTLVTVSS VL: DIVMTQSPDSLAVSLGERATINCKASKKVTIFGSTSALHWYQQKPGQPPKLIYNLAKPESGVPDRFSGSGSGTDFTLTISSLQAEDVAVYYCLQNKEVPYTFGGGTKVEIKR
3. A6M20 (antibody, human IgG1, kappa, V domains shown) VH: QVQLVQSGAEVKKPGSSVKVSCKASGYTFTSYGITWVRQAPGQGLEWMGENYPRSGNTYYNEKFKGRVTITADKSTSTAYMELSSLRSEDTAVYYCARVEFISTVVAPYYYALDYWGQGTLVTVSS VL: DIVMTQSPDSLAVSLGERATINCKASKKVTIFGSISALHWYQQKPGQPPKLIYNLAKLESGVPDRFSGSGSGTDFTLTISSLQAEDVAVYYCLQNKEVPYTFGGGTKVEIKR
4. A3M0 (antibody, human IgG1, kappa, V domains shown, human gamma1 and kappa constant regions; Tested as HEK supernatant and as purified antibody; also called A3M0 purified) VH: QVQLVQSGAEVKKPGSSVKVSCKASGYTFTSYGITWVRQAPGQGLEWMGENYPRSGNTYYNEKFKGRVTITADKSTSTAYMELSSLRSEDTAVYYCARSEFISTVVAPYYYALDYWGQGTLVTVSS VL: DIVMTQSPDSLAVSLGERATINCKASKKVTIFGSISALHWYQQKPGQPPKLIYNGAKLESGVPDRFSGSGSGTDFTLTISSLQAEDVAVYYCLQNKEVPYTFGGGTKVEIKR
5. A5M21 (antibody, human IgG1, kappa, V domains shown) VH: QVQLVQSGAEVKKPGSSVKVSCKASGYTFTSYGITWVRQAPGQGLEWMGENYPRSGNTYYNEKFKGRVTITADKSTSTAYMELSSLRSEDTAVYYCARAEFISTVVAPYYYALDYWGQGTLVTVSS VL: DIVMTQSPDSLAVSLGERATINCKASKKVTIYGSTSALHWYQQKPGQPPKLIYNLAKPESGVPDRFSGSGSGTDFTLTISSLQAEDVAVYYCLQNKEVPYTFGGGTKVEIKR
6. A3M18 (antibody, human IgG1, kappa, V domains shown) VH: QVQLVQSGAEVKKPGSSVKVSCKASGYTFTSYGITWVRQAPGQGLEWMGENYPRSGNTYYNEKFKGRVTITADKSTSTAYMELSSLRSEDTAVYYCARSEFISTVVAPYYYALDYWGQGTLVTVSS VL: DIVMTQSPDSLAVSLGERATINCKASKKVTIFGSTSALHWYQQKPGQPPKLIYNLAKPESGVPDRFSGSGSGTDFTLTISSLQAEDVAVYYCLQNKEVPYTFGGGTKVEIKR

1: 2.41e+06; 2: 2.4e+06; 3: 2.62e+06; 4: 1.16e+06; 5: 1.73e+06; 6: 1.73e+06
